# MEASURED ON: anti-cotinine antibody (SEQ ID NO: 11/12, rabbit variable region with human IgG1 Fc DE mutation)
# EXPERIMENT NOTES: SPR binding of anti-cotinine antibody to ARM compounds, Biacore T200, 37° C. (Example 202)
# CONDITION DETAILS: SPR Biacore T200, 37° C., pH 7.4, antibody SEQ ID NO: 11/12 captured on protein A; Kd in molar
READOUT: pKd of Antibody for ARM Compound of Formula (I)
Quick one: just the number, no unit, thanks!

CC(C)N(C)[C@@H]1CC[C@H](N2CC[C@H](Nc3ncnc4ccc(C(F)(F)F)cc34)C2=O)[C@H](NC(=O)[C@H]2CC[C@@H](NC(=O)CCCOCCCCOCCNC(=O)[C@H]3CC(=O)N(C)[C@@H]3c3cccnc3)CC2)C1 :: 9.146

Moving on to the next compound.
Query pKd of Antibody for ARM Compound of Formula (I) for CC(C)N(C)[C@@H]1CC[C@H](N2CC[C@H](Nc3ncnc4ccc(C(F)(F)F)cc34)C2=O)[C@H](NC(=O)[C@H]2CC[C@@H](NC(=O)CCCC(=O)NCCCOCCCNC(=O)[C@H]3CC(=O)N(C)[C@@H]3c3cccnc3)CC2)C1 9.0895
